Time constant values by entry
system: Nucleic Acid; assay: Dissociation time constant (Tau 2) for dissociation of compound and calf thymus DNA complex; type: nucleic-acid assay; details: Bos taurus
Numbered stars: 1 amine (or outer) side, 2 acyl side, 3 side chain; on linkers, the order of the positions; unused ones are H or OH. Bridge positions count the residues as written; N and C are the ends. Square brackets hold non-standard residues; d marks the D form. Peptide text beside a SMILES is read from it. I, II: the chains in the order shown. Actinocin(1to9) = Cc1c2oc3c(C)ccc(C(=O)[*:2])c3nc-2c(C(=O)[*:1])c(N)c1=O; NMeV = CN[C@H](C(=O)O)C(C)C; Sar = CNCC(=O)O
readoutLabel: Time constant (s)

compound | quantitativeReadout
O=C(NCCN1CCOCC1)c1cccc2c(NCCCNCCCNc3c4ccccc4nc4c(C(=O)NCCN5CCOCC5)cccc34)c3ccccc3nc12 | 30
Cc1c2oc3c(C)ccc(C(=O)N[C@@H]4C(=O)N[C@H](C(C)C)C(=O)N5CCC[C@H]5C(=O)N(C)CC(=O)N(C)[C@@H](C(C)C)C(=O)O[C@@H]4C)c3nc-2c(C(=O)N[C@@H]2C(=O)N[C@H](C(C)C)C(=O)N3CCC[C@H]3C(=O)N(C)CC(=O)N(C)[C@@H](C(C)C)C(=O)O[C@@H]2C)c(N)c1=O [DACTINOMYCIN] (I: T[dV]P[Sar][NMeV] / II: T[dV]P[Sar][NMeV]; ester I:1-I:C, II:1-II:C; linker I:N-II:N via Actinocin(1to9)) | 68
CN(C)CCNC(=O)c1cccc2c(NCCCNCCCNc3c4ccccc4nc4c(C(=O)NCCN(C)C)cccc34)c3ccccc3nc12 | 32
CN(C)CCNC(=O)c1cccc2c(NCCN3CCN(CCNc4c5ccccc5nc5c(C(=O)NCCN(C)C)cccc45)CC3)c3ccccc3nc12 | 22
CN(C)CCNC(=O)c1cccc2c(NCCNCCNCCNc3c4ccccc4nc4c(C(=O)NCCN(C)C)cccc34)c3ccccc3nc12 | 33
CN(C)CCNC(=O)c1cccc2c(NCCCCCCCCNc3c4ccccc4nc4c(C(=O)NCCN(C)C)cccc34)c3ccccc3nc12 | 17

----------
tested on: CCRF-CEM; test: Cytotoxicity in human leukemic CCRF-CEM cells.; assay type: functional, cell-based

molecule | assaySystem | unitOfMeasurement | IC50
CN(C)CCNC(=O)c1cccc2c(NCCCCCCCCNc3c4ccccc4nc4c(C(=O)NCCN(C)C)cccc34)c3ccccc3nc12 | CCRF-CEM | nM | 35
COC1C(O)CC(OC2CC(Oc3cc4cc5c(c(O)c4c(O)c3C)C(=O)[C@@H](OC3CC(OC4CC(OC6CC(C)(O)C(OC(C)=O)C(C)O6)C(O)C(C)O4)C(O)C(C)O3)[C@H]([C@H](OC)C(=O)[C@@H](O)[C@@H](C)O)C5)OC(C)C2OC(C)=O)OC1C (stereo partly drawn) | CCRF-CEM | nM | 3.5
CN(C)CCNC(=O)c1cccc2c(NCCCNCCCNc3c4ccccc4nc4c(C(=O)NCCN(C)C)cccc34)c3ccccc3nc12 | CCRF-CEM | nM | 50

----------
Time constant overview
test system: Nucleic Acid; assay: Dissociation time constant (Tau 1) for dissociation of compound and calf thymus DNA complex; type: nucleic-acid assay; details: Bos taurus
Numbered stars: 1 amine (or outer) side, 2 acyl side, 3 side chain; on linkers, the order of the positions; unused ones are H or OH. Bridge positions count the residues as written; N and C are the ends. Square brackets hold non-standard residues; d marks the D form. Peptide text beside a SMILES is read from it. I, II: the chains in the order shown. Actinocin(1to9) = Cc1c2oc3c(C)ccc(C(=O)[*:2])c3nc-2c(C(=O)[*:1])c(N)c1=O; NMeV = CN[C@H](C(=O)O)C(C)C; Sar = CNCC(=O)O
readoutLabel: Time constant (s)

compound | unitOfMeasurement | quantitativeReadout
CN(C)CCNC(=O)c1cccc2c(NCCNCCNCCNc3c4ccccc4nc4c(C(=O)NCCN(C)C)cccc34)c3ccccc3nc12 | s | 6
Cc1c2oc3c(C)ccc(C(=O)N[C@@H]4C(=O)N[C@H](C(C)C)C(=O)N5CCC[C@H]5C(=O)N(C)CC(=O)N(C)[C@@H](C(C)C)C(=O)O[C@@H]4C)c3nc-2c(C(=O)N[C@@H]2C(=O)N[C@H](C(C)C)C(=O)N3CCC[C@H]3C(=O)N(C)CC(=O)N(C)[C@@H](C(C)C)C(=O)O[C@@H]2C)c(N)c1=O [DACTINOMYCIN] (I: T[dV]P[Sar][NMeV] / II: T[dV]P[Sar][NMeV]; ester I:1-I:C, II:1-II:C; linker I:N-II:N via Actinocin(1to9)) | s | 19
CN(C)CCNC(=O)c1cccc2c(NCCN3CCN(CCNc4c5ccccc5nc5c(C(=O)NCCN(C)C)cccc45)CC3)c3ccccc3nc12 | s | 7
CN(C)CCNC(=O)c1cccc2c(NCCCNCCCNc3c4ccccc4nc4c(C(=O)NCCN(C)C)cccc34)c3ccccc3nc12 | s | 6
CN(C)CCNC(=O)c1cccc2c(NCCCCCCCCNc3c4ccccc4nc4c(C(=O)NCCN(C)C)cccc34)c3ccccc3nc12 | s | 5
O=C(NCCN1CCOCC1)c1cccc2c(NCCCNCCCNc3c4ccccc4nc4c(C(=O)NCCN5CCOCC5)cccc34)c3ccccc3nc12 | s | 5
